Tested on: DU-145
assay name: NCI tumour cell line growth inhibition, 48 h
Activity calls are given as the source filed them. No stated cut-off is given here; in the data, active = GI50 up to about 1.1 µM and inactive = higher. *1 amine or outer side, *2 acyl side, *3 side chain or, on linkers, in order; H or OH if unused. Where a SMILES comes first, the peptide text is derived from it. [ ]: non-standard residue; d: D form. The star is where a group is joined. ξ: configuration not given here. X53 = CC(C)C[C@H](N[*:1])C1=N[C@H](C(=O)[*:2])CS1; Ile(3ξ) = CCC(C)[C@H](N)C(=O)O; Allyl(1,1-Me2) = C=CC(C)(C)*
Outcomes: active, inactive

- compound: "COc1c(Sc2c(SCSc3cnc4ccccc4c3Sc3cnc4ccccc4c3OC)cnc3ccccc23)cnc2ccccc12"
  assigned label: "inactive"
- compound: "CCN(C(=S)N[C@H](C(=O)N[C@@H](C)C(=O)OC)C(C)C)c1ccccc1"
  assigned label: "inactive"
- compound: "COC(=O)C1C(O)C(C)C(O)C(C)(O)C=C(C)C2=C3C(=C(C)C(=O)c4c(O)c(c(C)c(OC(C)=O)c43)NC(=O)C(C)=C/C=C\\C(C)(O)C(O)C(C)C1O)OCO2 (stereo not drawn)"
  assigned label: "inactive"
- compound: "NC1=CC(C(=O)c2ccncc2)c2nc3ccccc3nc21 (stereo not drawn)"
  assigned label: "inactive"
- compound: "Cc1ccc(S(=O)(=O)NNC(=O)Nc2ccc(Cl)cc2)cc1"
  assigned label: "inactive"
- compound: "COc1cc(C(=O)/C=C/c2ccc(OCC#N)cc2)cc(OC)c1OC"
  assigned label: "inactive"
- compound: "N=c1sc2ccccc2n1CC[S-].c1ccc2c(c1)sc1[n+]2CCS1"
  assigned label: "inactive"
- compound: "Clc1nc(-[n+]2ccc(-c3ccncc3)cc2)nc(Nc2ccccc2)c1Cl"
  assigned label: "inactive"
- compound: "C=CC(C)(C)OC[C@@H]1NC(=O)CNC(=O)[C@@H]2CCCN2C(=O)[C@H](C(C)CC)NC(=O)[C@@H]2CSC(=N2)[C@H](CC(C)C)NC1=O (stereo partly drawn) (cyclo(GS(Allyl(1,1-Me2))[X53][Ile(3ξ)]P))"
  assigned label: "inactive"
- compound: "Cc1cc(-c2nc3cc(O)ccc3s2)ccc1N"
  assigned label: "inactive"
- compound: "COc1cc(C=C2C(C)=NN(c3cccc(Cl)c3)C23SCC(=O)N3c2nc3ccccc3s2)ccc1O (stereo not drawn)"
  assigned label: "inactive"
- compound: "C/C(=C\\c1ccccc1)C(=O)NCc1ccc(C(=O)NCCc2c[nH]c3ccccc23)cc1"
  assigned label: "inactive"
- compound: "CC(=O)c1c(-c2ccc(Cl)cc2)c(C#N)c(=S)n(C2OC(CO)C(O)C(O)C2O)c1C (stereo not drawn)"
  assigned label: "inactive"
- compound: "O=[N+]([O-])C(=C/c1cccs1)/C(=C\\c1cccs1)[N+](=O)[O-]"
  assigned label: "inactive"
- compound: "C=C=C(Sc1ccccc1)C(C)(C)O"
  assigned label: "inactive"
- compound: "N#Cc1c(-c2ccccc2)cc(Nc2ccc(Cl)cc2)n2c1nc1ccccc12"
  assigned label: "inactive"
- compound: "CCCCN1C(=O)N(c2ccc(OCC)cc2)C2N(CCCC)C1C(C)(C)C2(C)C (stereo not drawn)"
  assigned label: "inactive"
- compound: "COC(=O)c1cc(C#N)[nH]c1-c1ccc(Br)s1"
  assigned label: "inactive"
- compound: "FC(F)(F)c1ccc(C2=N/S(c3ccccc3)=N\\C(c3ccc(C(F)(F)F)cc3)=N/S(c3ccccc3)=N\\2)cc1 (stereo not drawn)"
  assigned label: "inactive"
- compound: "COC1=CCC2=C(CCN(C(=O)C3CC3)C2Cc2ccc(OC)c(O)c2)C1 (stereo not drawn)"
  assigned label: "inactive"
- compound: "O=C1/C(=C/c2cccc(Br)c2)CSC/C1=C\\c1cccc(Br)c1"
  assigned label: "inactive"
- compound: "COc1ccc2[nH]c3c(c2c1)CCc1ccccc1-3"
  assigned label: "inactive"
- compound: "c1ccc(NCCSc2nc3ccccc3s2)cc1"
  assigned label: "inactive"
- compound: "CCOC1OC(=O)c2cc3ccc4c(c3c(-c3ccc5c(c3)OCO5)c21)OCO4 (stereo not drawn)"
  assigned label: "inactive"
- compound: "CN(CC(=O)O)CC(=O)O"
  assigned label: "inactive"
- compound: "COC1/C=C/C(C)C(C(C)C(OC)C(C)CCC(=O)C(C)C(CC(=O)O)OC)OC(=O)/C=C/C=C(\\C)CC(OC)CC2=CC(=O)O[C@H](C2)C(C)C(OC)CC(OC)/C=C/C(C)C(OC)C1 (stereo partly drawn)"
  assigned label: "active"
- compound: "O/N=C\\c1cc(O)c(O)c(/C=N/O)c1"
  assigned label: "inactive"
- compound: "CO[C@H]1SC[C@H](OC(C)=O)[C@H](OC(C)=O)[C@H]1OC(C)=O"
  assigned label: "inactive"
- compound: "CC(C)OC(=O)c1ccc(CCC2=CC(=O)C(Br)=CC2=O)cc1"
  assigned label: "inactive"
- compound: "C/C1=C\\CC[C@@]2(C)O[C@@H]2C[C@@H]2[C@H](C/C(C)=C/CC1)OC(=O)C21CC1"
  assigned label: "inactive"
- compound: "CC(C)=CCC[C@@H](C)c1c2nc3ccccc3[nH]c-2c(C)c(=O)c1O"
  assigned label: "inactive"
- compound: "C=CC(C)(C)C(=C)C(=O)Nc1ccccc1I"
  assigned label: "inactive"
- compound: "CN(C)/N=C1\\C=C2CC[C@H](O[Si](C)(C)C(C)(C)C)[C@@]2(C)CC1"
  assigned label: "inactive"
- compound: "CC(=O)OC1C(Oc2c(C)cc3c(c2O)[C@@H](C)CC[C@@H]3[C@@H](C)CCC=C(C)C)OCC(O)C1O (stereo partly drawn)"
  assigned label: "inactive"
- compound: "O=C(O)Cc1ccc([N+](=O)[O-])cc1[N+](=O)[O-]"
  assigned label: "inactive"
- compound: "COc1ccc(C(=O)/C=C/c2ccc(OCCCCCCCCCCOc3ccc(/C=C/C(=O)c4ccc(OC)cc4)cc3)cc2)cc1"
  assigned label: "inactive"
- compound: "COc1cccc(CCNC(=O)Cc2ccccc2CCO)c1"
  assigned label: "inactive"
- compound: "Cc1ncc([N+](=O)[O-])n1CCNC(=O)CCCCCn1ccnc1[N+](=O)[O-]"
  assigned label: "inactive"

---

This listing pairs molecules with measured GI50.
Test system: UACC-257
assay name: NCI tumour cell line growth inhibition, 48 h
Active and inactive are the calls of the source. Cut-off read from the data, not from the text of the source: active = GI50 up to about 1.1 µM and inactive = higher.

- molecule: "Clc1ccc(C2C3COc4ccccc4C3=NN2c2ccccc2)cc1 (centres undefined)"
  system tested: "UACC-257"
  GI50: "> 100 µM (inactive)"
- molecule: "COC(=O)Cc1c(/C=C/C(C)(C)n2cnc(CCN3C(=O)CCC3=O)c2)[nH]c2ccccc12"
  system tested: "UACC-257"
  GI50: "> 100 µM (inactive)"
- molecule: "C/C(CC(=O)Nc1ccccc1)=N\\NC(N)=S"
  system tested: "UACC-257"
  GI50: "> 100 µM (inactive)"
- molecule: "CN(C)c1ccc(/C=c2/c3ccccc3n3c2cc(NC(=O)NCCC[N+](C)(C)C)[n+]3C)cc1"
  system tested: "UACC-257"
  GI50: "> 100 µM (inactive)"
- molecule: "COc1cc(/C=C/C(=O)C2(C(=O)/C=C/c3cc(OC)c(OC)c(OC)c3)CCCCC2)cc(OC)c1OC"
  system tested: "UACC-257"
  GI50: "76.9 µM (inactive)"
- molecule: "O=C1c2ccccc2-c2nnc3c(c21)-c1ccccc1C3"
  system tested: "UACC-257"
  GI50: "> 100 µM (inactive)"
- molecule: "COCCCNC(=O)CC(=O)NCCCOC"
  system tested: "UACC-257"
  GI50: "> 100 µM (inactive)"
- molecule: "CC(=O)c1ccc(NC(=O)C(=O)Nn2c(S)nc3ccccc3c2=O)cc1"
  system tested: "UACC-257"
  GI50: "> 100 µM (inactive)"
- molecule: "COC(=O)C1C(O)C(C)C(O)C(C)(O)C=C(C)C2=C3C(=C(C)C(=O)c4c(O)c(c(C)c(OC(C)=O)c43)NC(=O)C(C)=C/C=C\\C(C)(O)C(O)C(C)C1O)OCO2 (centres undefined)"
  system tested: "UACC-257"
  GI50: "28.9 µM (inactive)"

---

Test system: HCC 2998
assay name: NCI tumour cell line growth inhibition, 48 h
Calls of active or inactive are those of the source. Cut-off read from the data, not from the text of the source: active = GI50 up to about 1.1 µM and inactive = higher.

- compound: "Fc1ccc(C2SCc3nc4ccccc4n32)cc1Cl (configuration not stated)"
  GI50: "16.3 µM (inactive)"
- compound: "Cc1cccc(C)c1NC(=O)CCc1nnc2s/c(=C\\c3ccc(Cl)cc3)c(=O)n12"
  GI50: "> 100 µM (inactive)"
- compound: "N#CC(c1ccccc1)N1CCCN(C(C#N)c2ccccc2)C1c1ccccc1O (configuration not stated)"
  GI50: "> 100 µM (inactive)"
- compound: "O=CN1CCN(C=S)CC1"
  GI50: "> 100 µM (inactive)"
- compound: "Brc1ccccc1/C=N\\C12CC3CC(CC(C3)C1)C2"
  GI50: "> 100 µM (inactive)"
- compound: "COc1cc(C(=O)NO)ccc1O"
  GI50: "> 100 µM (inactive)"
- compound: "C/C(CC(=O)Nc1ccc([N+](=O)[O-])cc1)=N\\NC(N)=O"
  GI50: "> 100 µM (inactive)"
- compound: "COc1ccc2c[n+](C)c3c4cc(OC)c(OC)cc4ccc3c2c1"
  GI50: "8.11 µM (inactive)"
- compound: "CN(Cc1cccc2ccsc12)/N=C\\c1ccc(Cl)cc1"
  GI50: "49.3 µM (inactive)"
- compound: "COc1ccc(C(c2ccccc2C(=O)O)c2ccc(OC)c3ccccc23)c2ccccc12"
  GI50: "6.49 µM (inactive)"
- compound: "O=c1ccc2ccc(CBr)cc2o1"
  GI50: "3.34 µM (inactive)"
- compound: "NC(CCCCNCc1ccccc1O)C(=O)O (configuration not stated)"
  GI50: "> 100 µM (inactive)"
